- testedOn: FGFR1 (Homo sapiens)
- Construct: made in house; host or cells: E. coli (BL21-derived) infected with T7 phage
- Sequence (P11362 22-822): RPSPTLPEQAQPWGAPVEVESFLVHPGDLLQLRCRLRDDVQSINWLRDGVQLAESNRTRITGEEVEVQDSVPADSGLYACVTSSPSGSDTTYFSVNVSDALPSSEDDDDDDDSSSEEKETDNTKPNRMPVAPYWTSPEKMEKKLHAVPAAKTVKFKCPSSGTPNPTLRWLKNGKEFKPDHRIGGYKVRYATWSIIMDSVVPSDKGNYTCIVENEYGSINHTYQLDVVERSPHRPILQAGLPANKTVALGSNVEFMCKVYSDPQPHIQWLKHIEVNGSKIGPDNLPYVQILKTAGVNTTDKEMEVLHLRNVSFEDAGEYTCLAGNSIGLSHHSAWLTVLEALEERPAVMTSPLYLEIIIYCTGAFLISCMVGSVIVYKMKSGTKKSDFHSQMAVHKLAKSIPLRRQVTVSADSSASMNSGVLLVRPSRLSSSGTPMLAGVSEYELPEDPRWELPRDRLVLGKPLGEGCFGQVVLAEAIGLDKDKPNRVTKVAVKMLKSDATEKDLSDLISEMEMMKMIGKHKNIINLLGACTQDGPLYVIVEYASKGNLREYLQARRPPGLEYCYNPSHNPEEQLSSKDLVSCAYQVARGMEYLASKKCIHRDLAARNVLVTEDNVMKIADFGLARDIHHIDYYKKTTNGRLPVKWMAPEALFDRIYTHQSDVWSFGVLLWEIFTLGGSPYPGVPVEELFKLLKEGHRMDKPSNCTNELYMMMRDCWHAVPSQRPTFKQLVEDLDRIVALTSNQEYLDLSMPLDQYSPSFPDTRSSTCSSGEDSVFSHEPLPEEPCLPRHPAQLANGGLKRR
- measurementNotes: Kinase binding assay (Kd), kinase-tagged T7 phage, affinity beads, qPCR
- testParameters: in vitro binding assay, 11-point 3-fold dilution series
For each entry below, report its Kd value.

Known results for molecules:
molecule: C=CC(=O)N1CC(F)(C(=O)N2CCC(n3nnc(-c4cc(O[C@H](CO)c5ccccn5)c5c(C#N)cnn5c4)c3C)CC2)C1 (single isomer, unassigned)
testedOn: FGFR1 (Homo sapiens)
valueObserved: 0.1 to 100 nM

molecule: C=CC(=O)N1CC(OC)(C(=O)N2CCC(n3nnc(-c4cc(O[C@@H](CO)c5ccccn5)c5c(C#N)cnn5c4)c3C)CC2)C1
testedOn: FGFR1 (Homo sapiens)
valueObserved: ≥ 1000 nM

molecule: C=CC(=O)N1CCC2(CC1)CC(n1ncc(-c3cc(O[C@H](CO)c4ccccn4)c4c(C#N)cnn4c3)c1C)C2
testedOn: FGFR1 (Homo sapiens)
valueObserved: 0.1 to 100 nM

molecule: C=CC(=O)N1CCC2(CC1)CC(n1ncc(-c3cc(OC(CO)c4ccnn4C)c4c(C#N)cnn4c3)c1C)C2 (stereo not shown)
testedOn: FGFR1 (Homo sapiens)
valueObserved: 250 to 1000 nM

molecule: C=CC(=O)N1CCC2(CC1)CC(n1nnc(-c3cc(O[C@@H](CO)c4ccc(F)cn4)c4c(C#N)cnn4c3)c1C)C2
testedOn: FGFR1 (Homo sapiens)
valueObserved: 250 to 1000 nM

# per-item lookup of Kd; items listed below
1. C=CC(=O)N1CCC(n2ncc(-c3cc(O[C@@H](CO)c4ccc(F)cn4)c4c(C#N)cnn4c3)c2C)CC1
2. C=CC(=O)N1CCC2(CC1)CC(n1ncc(-c3cc(O[C@H](CO)c4ccc(F)cn4)c4c(C#N)cnn4c3)c1C)C2

A)
1. 250 to 1000 nM
2. 0.1 to 100 nM

Origin of measurements: patent US20260209223A1
